// data source = patent US10894043B2

- Experimental Details: in vivo
- Setup Conditions: Brown Norway, rat, iv, 0.1 mg/kg
Measure: half-life (h)

1) COc1cc(N2CCC(N3CCN(C)CC3)CC2)ccc1Nc1ncc(Cl)c(Nc2ccccc2P(C)(C)=O)n1 [brigatinib]    137

----------
- Experimental Details: in vivo
- Setup Conditions: Brown Norway, rat, iv, 0.2 mg/kg, Half-life in choroid and sclera
Items are presented alongside their recorded half-life.
Measure: half-life (h)

1) COc1cc2c(Nc3ccc(Cl)c(Cl)c3F)ncnc2cc1OC[C@@H]1C[C@@H]2CN(C)C[C@@H]2C1    305
2) Cc1cc(C(=O)Nc2nc3cccc(Cl)c3n2[C@@H]2CCCCN(C(=O)/C=C/CN(C)C)C2)ccn1    65.4
3) C[C@@H]1COC(Nc2ccc3ncnc(Nc4ccc(OCc5nccs5)c(Cl)c4)c3c2)=N1    46.1
4) CNC(=O)c1c(C)oc2cc(Oc3ncnc4cc(OC)c(OC)cc34)ccc12    32.5
5) COc1cc2nccc(Oc3ccc(NC(=O)NC4CC4)c(Cl)c3)c2cc1C(N)=O    42.3
6) COc1cc2c(Oc3ccc4[nH]c(C)cc4c3F)ccnc2cc1OCC1(N)CC1    141
7) CNC(=O)c1ccccc1Sc1ccc2c(/C=C/c3ccccn3)n[nH]c2c1    57.4
